- assay explanation: Selectivity index, ratio of CC50 of human HepG2 cells to MIC of antifungal activity against Candida tropicalis ATCC 200956
- Format: toxicity
This section presents molecules with their documented selectivity ratio values.

{"molecule": "C[C@@H]1OC(c2ccc3ccccc3c2O)=N[C@@H]1C(=O)OCc1ccccc1", "selectivity ratio": "≥ 176"}
{"molecule": "C[C@H]1OC(c2ccc(Cl)cc2O)=N[C@H]1C(=O)OCc1ccccc1", "selectivity ratio": "≥ 380"}
{"molecule": "C[C@@H]1OC(c2cc(Cl)c3ccccc3c2O)=N[C@@H]1C(=O)OC[C@H]1COC(C)(C)O1", "selectivity ratio": "≥ 1"}
{"molecule": "COC(=O)C1N=C(c2cc(Cl)c3ccccc3c2O)O[C@H]1C (single isomer, unassigned)", "selectivity ratio": 1}
{"molecule": "C[C@H]1OC(c2cc(I)ccc2O)=N[C@H]1C(=O)OCc1ccccc1", "selectivity ratio": "≥ 64"}
{"molecule": "CC[C@H](C)C[C@H](C)CCCCCCCCC(=O)N[C@H]1C[C@@H](O)[C@@H](NCCN)NC(=O)[C@@H]2[C@@H](O)CCN2C(=O)[C@H]([C@H](O)CCN)NC(=O)[C@H]([C@H](O)[C@@H](O)c2ccc(O)cc2)NC(=O)[C@@H]2C[C@@H](O)CN2C(=O)[C@H]([C@@H](C)O)NC1=O", "selectivity ratio": 16}
{"molecule": "C[C@@H]1OC(c2cc(Cl)c3ccccc3c2O)=N[C@@H]1C(=O)OC/C=C/c1ccccc1", "selectivity ratio": "≥ 1"}
{"molecule": "COC(=O)[C@H]1N=C(c2ccc3ccccc3c2O)O[C@H]1C", "selectivity ratio": 5}
{"molecule": "C#CCNC(=O)C1N=C(c2cc(Cl)c3ccccc3c2O)O[C@H]1C (single isomer, unassigned)", "selectivity ratio": "≥ 132"}
{"molecule": "C[C@@H]1OC(c2cc(Cl)c3ccccc3c2O)=NC1C(=O)Nc1ccc2ncsc2c1 (single isomer, unassigned)", "selectivity ratio": "≥ 133"}
{"molecule": "C[C@@H]1OC(c2cc(Br)c3ccccc3c2O)=N[C@@H]1C(=O)OCc1ccccc1 (single isomer, unassigned)", "selectivity ratio": "≥ 18"}
{"molecule": "C[C@@H]1OC(c2cc(Cl)c3ccccc3c2O)=NC1C(=O)OCc1ccoc1 (single isomer, unassigned)", "selectivity ratio": "≥ 2"}
{"molecule": "C[C@@H]1OC(c2cc(Cl)c3ccccc3c2O)=N[C@@H]1C(=O)OCc1ccccc1", "selectivity ratio": 8}
{"molecule": "C[C@H]1OC(c2ccc(I)cc2O)=N[C@H]1C(=O)OCc1ccccc1", "selectivity ratio": "≥ 62"}
{"molecule": "CCNC(=O)C1N=C(c2cc(Cl)c3ccccc3c2O)O[C@H]1C (single isomer, unassigned)", "selectivity ratio": "≥ 128"}
{"molecule": "CCNC(=O)[C@H]1N=C(c2ccc3ccccc3c2O)O[C@H]1C", "selectivity ratio": "≥ 128"}
{"molecule": "C[C@@H]1OC(c2cc(Cl)c3ccccc3c2O)=NC1C(=O)Nc1ccccc1NC(=O)[C@@H]1N=C(c2cc(Cl)c3ccccc3c2O)O[C@@H]1C (single isomer, unassigned)", "selectivity ratio": "≥ 23"}
{"molecule": "C[C@H]1OC(c2ccc(Br)cc2O)=N[C@H]1C(=O)OCc1ccccc1", "selectivity ratio": 62}
{"molecule": "C[C@H]1OC(c2ccccc2O)=N[C@H]1C(=O)OCc1ccccc1", "selectivity ratio": "≥ 26"}
{"molecule": "C[C@@H](O)[C@H](NC(=O)c1ccc2ccccc2c1O)C(=O)OCc1ccccc1", "selectivity ratio": 3}
{"molecule": "COc1ccc(O)c(C2=N[C@@H](C(=O)OCc3ccccc3)[C@@H](C)O2)c1", "selectivity ratio": 25}
